Provide the recorded IC50 for the entries that follow.
# Target: full-length beta-Catenin (Uniprot ID P35222) (Homo sapiens (Human)) (UniProt P35222)
# Sequence (P35222 2-781 limits assumed): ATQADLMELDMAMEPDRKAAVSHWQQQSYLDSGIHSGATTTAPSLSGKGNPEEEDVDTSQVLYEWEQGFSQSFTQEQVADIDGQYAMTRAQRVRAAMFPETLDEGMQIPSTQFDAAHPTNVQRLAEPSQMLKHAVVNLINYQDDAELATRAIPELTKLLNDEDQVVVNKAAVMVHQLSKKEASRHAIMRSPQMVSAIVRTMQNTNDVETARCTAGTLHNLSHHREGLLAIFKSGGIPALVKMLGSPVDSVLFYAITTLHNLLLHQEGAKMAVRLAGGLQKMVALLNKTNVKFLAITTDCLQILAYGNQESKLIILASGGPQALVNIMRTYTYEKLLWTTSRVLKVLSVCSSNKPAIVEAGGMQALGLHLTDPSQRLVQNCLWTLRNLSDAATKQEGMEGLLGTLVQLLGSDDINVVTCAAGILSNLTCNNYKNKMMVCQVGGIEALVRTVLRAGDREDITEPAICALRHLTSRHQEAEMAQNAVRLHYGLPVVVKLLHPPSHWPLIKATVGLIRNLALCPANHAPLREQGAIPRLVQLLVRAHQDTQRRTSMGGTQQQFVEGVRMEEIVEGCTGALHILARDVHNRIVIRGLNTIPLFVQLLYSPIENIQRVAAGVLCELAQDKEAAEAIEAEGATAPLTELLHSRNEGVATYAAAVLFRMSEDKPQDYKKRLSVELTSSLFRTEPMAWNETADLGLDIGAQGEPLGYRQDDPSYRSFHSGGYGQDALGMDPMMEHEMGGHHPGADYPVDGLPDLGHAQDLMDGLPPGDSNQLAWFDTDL
# Experiment description: fluorescence polarization competition; full-length beta-catenin, 5FAM-TCF4(10-53) probe as competitor
Starred links: 1 amine or outer side, 2 acyl side, 3 side chain; linkers in the order of their positions; H or OH if unused. Positions of bridges follow the written chain, without caps; N, C: chain ends. Non-standard residues stand in square brackets, D forms with d. Primed or numbered codes have the meaning given here. PyrS2″ = (S)-3-amino-1-((pent-4-en-1-yloxy)carbonyl)pyrrolidine-3-carboxylic acid (stapling residue), C=CCCCOC(=O)N1CC[C@@](N[*:1])(C(=O)[*:2])C1; B5(23) = 2-amino-2-(pent-4-en-1-yl)hept-6-enoic acid (2,2-bis(4-pentenyl)glycine), stitching residue, C=CCCCC(CCCC=C)(N[*:1])C(=O)[*:2]; B5(4) = 2,2-bis(4-pentenyl)glycine = 2-amino-2-(pent-4-en-1-yl)hept-6-enoic acid (stitching residue), C=CCCCC(CCCC=C)(N[*:1])C(=O)[*:2]; B5(5) = 2,2-bis(4-pentenyl)glycine, 2-amino-2-(pent-4-en-1-yl)hept-6-enoic acid (stitching residue), C=CCCCC(CCCC=C)(N[*:1])C(=O)[*:2]; PyrS2 = (S)-3-amino-1-((pent-4-en-1-yloxy)carbonyl)pyrrolidine-3-carboxylic acid, C=CCCCOC(=O)N1CC[C@@](N[*:1])(C(=O)[*:2])C1; B5(3) = 2,2-bis(4-pentenyl)glycine (stitching residue), C=CCCCC(CCCC=C)(N[*:1])C(=O)[*:2]; Phe(3-COOH) = N[C@@H](Cc1cccc(C(=O)O)c1)C(=O)O; Phe(2-CF3) = N[C@@H](Cc1ccccc1C(F)(F)F)C(=O)O; 2Nal = N[C@@H](Cc1ccc2ccccc2c1)C(=O)O; Bta = N[C@@H](Cc1csc2ccccc12)C(=O)O; αAllylPro = C=CC[C@@]1(C(=O)O)CCCN1; tBuAla = CC(C)(C)C[C@H](N)C(=O)O; 3Thi = N[C@@H](Cc1ccsc1)C(=O)O; R5 = C=CCCC[C@@](C)(N)C(=O)O; Aib = CC(C)(N)C(=O)O
Give bare numbers, in nM.

Recorded IC50, per entry:
Binder	Endpoint name	Obs value
Ac-PD[tBuAla][R5]DDAAFL[PyrS2][3Thi][Bta]Q-NH2 (staple 4-11; also: staple -CH=CH- reduced to -CH2-CH2-) [I-1810]	IC50	416
Ac-[αAllylPro]D[tBuAla][B5(3)]NT[Aib]AFN[PyrS2″][3Thi][Bta]Y-NH2 (staple 1-4, 4-11) [Ac-PL3-Asp-Npg-B5-Asn-Thr-Aib-Ala-Phe-Asn-PyrS2-3Thi-BztA-Tyr-NH2]	IC50	310
Ac-[αAllylPro]D[tBuAla][B5(23)]NQAAFN[PyrS2][3Thi][Bta]Q-NH2 (staple 1-4, 4-11; also: earlier-eluting HPLC staple isomer) [I-1566]	IC50	231

Batch request: IC50 for each of the following binders.
1. Ac-[αAllylPro]D[tBuAla][B5(4)]LNAAFN[PyrS2][3Thi][Bta]Q-NH2 (staple 1-4, 4-11; also: staple isomer of later-eluting HPLC peak) [I-1563]
2. Ac-[αAllylPro]D[tBuAla][B5(5)]D[Phe(3-COOH)]AAFL[PyrS2″][Phe(2-CF3)][Bta][(NHEt)GlnR]A-NH2 (staple 1-4, 4-11) [Ac-PL3-Asp-Npg-B5-Asp-3COOHF-Ala-Ala-Phe-Leu-PyrS2-2F3MeF-BztA-[NHEt]GlnR-Ala-NH2]
3. Ac-[αAllylPro]D[tBuAla][B5(5)]DDAAFT[PyrS2″][3Thi][2Nal]Q-NH2 (staple 1-4, 4-11) [I-1233]
4. Ac-[αAllylPro]D[tBuAla][B5(5)]NT[Aib]AFN[PyrS2″][3Thi][Bta]V-NH2 (staple 1-4, 4-11) [Ac-PL3-Asp-Npg-B5-Asn-Thr-Aib-Ala-Phe-Asn-PyrS2-3Thi-BztA-Val-NH2]

Output line:
1. 2850
2. 24
3. 24
4. 475

Batch request: IC50 for each of the following binders.
1. Ac-[αAllylPro]D[tBuAla][B5(5)]NT[Aib]AFN[PyrS2″][3Thi][Bta]L-NH2 (staple 1-4, 4-11) [Ac-PL3-Asp-Npg-B5-Asn-Thr-Aib-Ala-Phe-Asn-PyrS2-3Thi-BztA-Leu-NH2]
2. Ac-[αAllylPro]D[tBuAla][B5(3)]D[Phe(3-COOH)]QAFL[PyrS2″][Phe(2-CF3)][RbMe2NapA]A-NH2 (staple 1-4, 4-11) [Ac-PL3-Asp-Npg-B5-Asp-3COOHF-Gln-Ala-Phe-Leu-PyrS2-2F3MeF-RbMe2NapA-Ala-NH2]

Output line:
627
47
